# SYSTEM_NAME: Ribonucleotide reductase large subunit (Herpes simplex virus 1)
# TEST_NAME: In vitro inhibitory activity against HSV ribonucleotide reductase
pIC50: −log10 of the molar value. Non-standard residues stand in square brackets, D forms with d. Residues, ends and D or L forms follow the SMILES beside them. *: point of attachment. Leu(γ-Me)ol = CC(C)(C)C[C@@H](CO)N*; Hydrocinnamoyl = O=C(CCc1ccccc1)*; tBuAla = CC(C)(C)C[C@H](N)C(=O)O; Tle = CC(C)(C)[C@H](N)C(=O)O; Pyrrolidide = C1CCN(*)C1; Abu = CC[C@H](N)C(=O)O
Please enter satisfied where pIC50 is greater than or equal to 6, and not satisfied where it is lower.

Look over these answered cases.
compound="CC[C@H](NC(=O)CCc1ccccc1)C(=O)N[C@H](C(=O)N[C@@H](CC(=O)N1CCCC1)C(=O)N[C@@H](CC(=O)O)C(=O)N[C@@H](CC(C)C)C(=O)O)C(C)C (Hydrocinnamoyl-[Abu]VD(Pyrrolidide)DL-OH)" cat=satisfied
compound="CC(C)C[C@H](NC(=O)[C@H](CC(=O)O)NC(=O)[C@H](CC(=O)N1CCCC1)NC(=O)[C@@H](NC(=O)[C@@H](NC(=O)CCc1ccccc1)C(C)C)C(C)(C)C)C(=O)O (Hydrocinnamoyl-V[Tle]D(Pyrrolidide)DL-OH)" cat=satisfied
compound=CC(C)C[C@H](NC(=O)[C@H](CC(=O)O)NC(=O)[C@H](CC(N)=O)NC(=O)[C@@H](NC(=O)[C@@H](NC(=O)CCc1ccccc1)C(C)C)C(C)C)C(=O)O cat="not satisfied"
compound="CC(C)[C@H](NC(=O)CCc1ccccc1)C(=O)N[C@H](C(=O)N[C@@H](CC(=O)N1CCCC1)C(=O)N[C@@H](CC(=O)O)C(=O)N[C@H](CO)CC(C)(C)C)C(C)C (Hydrocinnamoyl-VVD(Pyrrolidide)D-{Leu(γ-Me)ol})" cat=satisfied
compound=CC(C)C[C@H](NC(=O)[C@H](CC(=O)O)NC(=O)[C@H](CC(N)=O)NC(=O)[C@@H](NC(=O)[C@H](C(C)C)N(C)C(=O)C(Cc1ccccc1)Cc1ccccc1)C(C)C)C(=O)O cat=satisfied

Next compound, please.
Check if pIC50 >= 6 (inclusive). Item: CC(C)[C@H](NC(=O)CCc1ccccc1)C(=O)N[C@H](C(=O)N[C@@H](CC(=O)N1CCCC1)C(=O)N[C@@H](CC(=O)O)C(=O)N[C@@H](CC(C)(C)C)C(=O)O)C(C)C (Hydrocinnamoyl-VVD(Pyrrolidide)D[tBuAla]-OH) satisfied
